IC50 by entry:
- study-system: Recombinant human JAK1 catalytic domain (Homo sapiens (Human), UniProt P23458)
- Sequence (P23458 850-1154): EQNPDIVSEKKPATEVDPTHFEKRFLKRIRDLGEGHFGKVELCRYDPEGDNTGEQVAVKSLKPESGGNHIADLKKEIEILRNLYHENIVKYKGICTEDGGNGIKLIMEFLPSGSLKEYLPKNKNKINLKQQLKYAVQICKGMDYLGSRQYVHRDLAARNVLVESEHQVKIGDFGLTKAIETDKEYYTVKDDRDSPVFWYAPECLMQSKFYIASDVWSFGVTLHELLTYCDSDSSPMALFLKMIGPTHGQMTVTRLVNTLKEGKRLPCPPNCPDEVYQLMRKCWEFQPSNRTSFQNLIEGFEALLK
- experimental-protocol: JAK1 inhibition assay
- Format: biochemical
- stated-conditions: semi-quantitative score

Recorded results for 6 compounds are shown here.
compound | IC50
CC(C)(O)C1CCN(Cc2ccc(-c3cccc4nc(NC(=O)C5CC5)nn34)cc2)CC1 [Compound 243] | 101 to 500 nM
CC1(C)CCCN(C(=O)c2ccc(-c3cccc4nc(NC(=O)C5CC5)nn34)cc2)C1 [Compound 175] | < 100 nM
O=C(Nc1nc2cccc(-c3ccc(Oc4ccccc4)cc3)n2n1)C1CC1 [Compound 46] | < 100 nM
O=C(Nc1nc2cccc(-c3ccc(NS(=O)(=O)c4ccccc4F)cc3)n2n1)C1CC1 [Compound 54] | < 100 nM
O=C(Nc1nc2cccc(-c3ccc(CCc4ccccn4)cc3)n2n1)C1CC1 [Compound 211] | < 100 nM
O=C(Nc1ccccc1)c1ccc(-c2cccc3nc(NC(=O)C4CC4)nn23)cc1 [Compound 43] | 101 to 500 nM

# IC50 (compound: O=C(Nc1nc2cccc(-c3ccc(NS(=O)(=O)c4ccccc4)cc3)n2n1)C1CC1 [Compound 79] ) is < 100 nM

# IC50 (compound: O=C(Nc1nc2cccc(-c3cccc(OCc4ccccc4)c3)n2n1)C1CC1 [Compound 14] ) is 101 to 500 nM

# IC50 (compound: O=C(Nc1nc2cccc(-c3ccc(NCc4ccccc4)cc3)n2n1)C1CC1 [Compound 72] ) is < 100 nM

# IC50 (compound: Cc1ccccc1OCC1CCN(C(=O)c2ccc(-c3cccc4nc(NC(=O)C5CC5)nn34)cc2)CC1 [Compound 133] ) is 101 to 500 nM

# IC50 (compound: O=C(Nc1nc2cccc(-c3ccc(C(=O)N4CCC(Oc5cccnc5)CC4)cc3)n2n1)C1CC1 [Compound 110] ) is 101 to 500 nM

# IC50 (compound: CC(=O)NC1CCCN(C(=O)c2ccc(-c3cccc4nc(NC(=O)C5CC5)nn34)cc2)C1 (stereo not drawn) [Compound 296] ) is 101 to 500 nM
